Entry source: paper PMC6009872

subject.of.test: LdcCA (Leishmania infantum)
Construct: gene LINJ_06_0630; organism given as Leishmania donovani chagasi
Sequence (A4HSV2 1-306): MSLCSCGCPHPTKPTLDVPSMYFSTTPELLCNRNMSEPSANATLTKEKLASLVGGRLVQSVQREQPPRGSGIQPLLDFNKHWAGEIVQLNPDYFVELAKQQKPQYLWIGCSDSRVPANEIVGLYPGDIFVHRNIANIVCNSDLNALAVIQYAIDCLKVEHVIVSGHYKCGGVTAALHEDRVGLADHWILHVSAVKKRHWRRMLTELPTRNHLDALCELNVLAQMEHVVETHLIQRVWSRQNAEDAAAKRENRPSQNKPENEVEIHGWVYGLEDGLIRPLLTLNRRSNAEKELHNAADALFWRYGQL
test.name: stopped-flow CO2 hydrase assay
Type: biochemical
condition.description: 20 mM TRIS pH 8.3, 20 mM Na2SO4, CO2 1.7-17 mM, 15 min preincubation at room temperature
Entries and their Ki

smiles	Ki / µM
O=[N+]([O-])c1ccc2c(c1)B(O)OC2	4.01
O=C(Nc1ccc2c(c1)B(O)OC2)Nc1c(Cl)cc(Cl)cc1Cl	3.85
OB1OCc2ccc(NC(=S)Nc3ccc(C(F)(F)F)cc3)cc21	0.85
O=C(Nc1ccc(Cl)cc1)Nc1ccc2c(c1)B(O)OC2	0.62
OB1OCc2ccccc21	3.79
CC(=O)c1ccc(NC(=O)Nc2ccc3c(c2)B(O)OC3)cc1	0.48
Cc1ccc(NC(=S)Nc2ccc3c(c2)B(O)OC3)cc1	0.67
O=C(NCc1ccccc1)Nc1ccc2c(c1)B(O)OC2	2.04
OB1OCc2ccc(NC(=S)NCc3ccco3)cc21	4.36
COc1ccc(C)cc1NC(=O)Nc1ccc2c(c1)B(O)OC2	0.67
O=C(Nc1ccccc1)Nc1ccc2c(c1)B(O)OC2	0.74

====

subject.of.test: TcCA (Trypanosoma cruzi, UniProt Q4CVY4)
Construct: gene Tc00.1047053509597.20
Sequence (Q4CVY4 39-638): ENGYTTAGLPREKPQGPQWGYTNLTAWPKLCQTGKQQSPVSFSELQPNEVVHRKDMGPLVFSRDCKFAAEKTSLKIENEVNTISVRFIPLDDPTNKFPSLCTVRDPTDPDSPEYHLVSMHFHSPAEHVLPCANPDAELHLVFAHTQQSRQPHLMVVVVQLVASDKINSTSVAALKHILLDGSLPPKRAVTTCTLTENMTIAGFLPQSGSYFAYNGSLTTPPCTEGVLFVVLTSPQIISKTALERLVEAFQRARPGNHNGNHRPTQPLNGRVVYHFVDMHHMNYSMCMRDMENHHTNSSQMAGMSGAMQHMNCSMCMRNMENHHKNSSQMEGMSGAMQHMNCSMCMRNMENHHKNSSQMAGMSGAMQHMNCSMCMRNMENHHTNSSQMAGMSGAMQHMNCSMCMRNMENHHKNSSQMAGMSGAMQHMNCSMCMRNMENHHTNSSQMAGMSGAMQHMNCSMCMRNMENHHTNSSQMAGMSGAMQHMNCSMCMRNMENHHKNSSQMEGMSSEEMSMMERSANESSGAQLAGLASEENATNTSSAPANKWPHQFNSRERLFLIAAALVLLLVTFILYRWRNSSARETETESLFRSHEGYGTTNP
test.name: stopped-flow CO2 hydrase assay
Format: biochemical
condition.description: 20 mM Hepes pH 7.5, 20 mM Na2SO4, CO2 1.7-17 mM, 15 min preincubation at room temperature
The threshold is 60 µM. Values of Ki beneath it are tagged 1; values meeting or exceeding it are tagged 0.

smiles	subject.of.test	cat
OB1OCc2ccc(NC(=S)Nc3ccccc3)cc21	TcCA (Trypanosoma cruzi, UniProt Q4CVY4)	1
Cc1cc(Cl)cc(CNC(=O)Nc2ccc3c(c2)B(O)OC3)c1	TcCA (Trypanosoma cruzi, UniProt Q4CVY4)	0
O=C(Nc1ccc(F)cc1)Nc1ccc2c(c1)B(O)OC2	TcCA (Trypanosoma cruzi, UniProt Q4CVY4)	1
CC(=O)c1ccc(NC(=O)Nc2ccc3c(c2)B(O)OC3)cc1	TcCA (Trypanosoma cruzi, UniProt Q4CVY4)	1
OB1OCc2ccc(NC(=S)NCCc3ccccc3)cc21	TcCA (Trypanosoma cruzi, UniProt Q4CVY4)	0

====

subject.of.test: TcCA (Trypanosoma cruzi)
Construct: gene Tc00.1047053509597.20
test.name: stopped-flow CO2 hydrase assay
Assay type: biochemical
condition.description: 20 mM Hepes pH 7.5, 20 mM Na2SO4, CO2 1.7-17 mM, 15 min preincubation at room temperature
Label criterion met when Ki is strictly below 40 µM; otherwise label criterion not met.

smiles	cat
O=C(Nc1ccc2c(c1)B(O)OC2)Nc1c(Cl)cc(Cl)cc1Cl	criterion not met
COc1ccc(C)cc1NC(=O)Nc1ccc2c(c1)B(O)OC2	criterion met
O=C(Nc1ccccc1)Nc1ccc2c(c1)B(O)OC2	criterion met
O=[N+]([O-])c1ccc2c(c1)B(O)OC2	criterion not met
OB1OCc2ccc(NC(=S)Nc3ccc(C(F)(F)F)cc3)cc21	criterion met
OB1OCc2ccccc21	criterion not met
OB1OCc2ccc(NC(=S)NCc3ccco3)cc21	criterion not met
O=C(Nc1ccc(Cl)cc1)Nc1ccc2c(c1)B(O)OC2	criterion met
O=C(NCc1ccccc1)Nc1ccc2c(c1)B(O)OC2	criterion not met
COc1ccc(NC(=S)Nc2ccc3c(c2)B(O)OC3)cc1	criterion met
O=C(NCc1ccco1)Nc1ccc2c(c1)B(O)OC2	criterion not met
OB1OCc2ccc(NC(=S)Nc3ccc(F)cc3)cc21	criterion met
Nc1ccc2c(c1)B(O)OC2	criterion not met
O=[N+]([O-])c1ccc(NC(=S)Nc2ccc3c(c2)B(O)OC3)cc1	criterion not met
Cc1ccc(NC(=S)Nc2ccc3c(c2)B(O)OC3)cc1	criterion met
